Test: Cytotoxicity against human HEK293T cells assessed as reduction in cell viability incubated for 48 hrs by WST assay
Type: toxicity, cell-based, HEK-293T
Details: read-out: LC50
endpoint: CC50 at 48 h

Lookup: So what does the record say about CC50 at 48 h for CCCCCCC[C@H]1Cc2cc3c(c(O)c2CO1)C(=O)C(=O)C(OC)=C3 ?
Found: > 250 µM

----------
Reported pIC50 values are given for each entry in this list.
Molecular target: Human immunodeficiency virus type 1 integrase (Human immunodeficiency virus 1, UniProt Q7ZJM1)
Sequence (Q7ZJM1 whole entry): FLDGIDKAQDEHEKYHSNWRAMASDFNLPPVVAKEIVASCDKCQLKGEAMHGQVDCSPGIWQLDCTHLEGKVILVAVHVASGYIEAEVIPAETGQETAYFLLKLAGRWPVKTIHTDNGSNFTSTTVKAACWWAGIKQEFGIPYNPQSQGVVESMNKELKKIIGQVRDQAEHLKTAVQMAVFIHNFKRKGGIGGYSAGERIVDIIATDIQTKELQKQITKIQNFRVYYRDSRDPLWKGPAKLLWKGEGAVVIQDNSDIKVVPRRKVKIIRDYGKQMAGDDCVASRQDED
Assay: Inhibition of HIV-1 integrase expressed in HEK293T co-transfected with CS-II Luci vector incubated for 48 hrs by Bright-Glo luciferase assay
Lab note — pIC50 values are minus log10 of concentrations in M.

Examples with their reported pIC50 follow.
CCCCCc1cc(O)c(C)c(O)c1C=O	4.89
CCCCCCc1c(OC)cc(=O)oc1C	4.82
CCCC/C=C/c1c(OC)cc(=O)oc1C	3.60

Now look at this entry.
Lookup: Returns the measured pIC50 for the input molecule. Input: CCCCCCC[C@H]1Cc2cc3c(c(O)c2CO1)C(=O)C(=O)C(OC)=C3
Found: 6.36
